- test: yeast display, Sf9 membrane polyspecificity reagent, FACS + sequencing; frameworks hold sequencing errors
measurement-name: polyreactivity (PSR sort gate)

{"input-sequence": "QVQLVESGGGLVQAGGSLRLSCAASGRILDVYVMGWYRQAPGKERELVAAISSGGSTYYADSVKGRFTISRDNAKNTVYLQMNSLKPEDTAVYYCAFYYWGQGTQVTVSS", "polyreactivity (PSR sort gate)": "high polyreactivity"}
{"input-sequence": "QVQLVESGGGLVQAGGSLRLSCAASGFIFTLYAMGWYRQAPGKESELVASISSGGSTNYADSVKGRFTISRDNAKNTVYFQMNSLKPEDTAVYYCAAYYYFKSDRFSGRYGRYYWGQGTQVTVSS", "polyreactivity (PSR sort gate)": "high polyreactivity"}
{"input-sequence": "QVQLVESGGGLVQAGGSLRLSCAASGSIFGFYAMGWYIQAPGKERELVAAISDSGDSTYYADSVKGRFTISRDNAKNTVYLQMNSLKPEDTAVYYCATDGRSNYYWGDYWGQGTHVTVSS", "polyreactivity (PSR sort gate)": "low polyreactivity"}
{"input-sequence": "QVQLVESGGGLVQAGGSLRLSCAASGGTFGSNAMGWYRPAPGKERELVAAISTTGGTTYYADSVKGRFTISRDNAKNTVYLQMNSLKPEDPAVYYCAKDGYVYGDWYTYAYDYWGQGTQVTVSS", "polyreactivity (PSR sort gate)": "low polyreactivity"}
{"input-sequence": "QVQLVESGGGLVQAGGSLRLSCAASGFSFARNAMGWYRQAPGKERELVAAISDSGGRTYYADSVKGRFTISRDIAKNTVYLQMNSLKPEDTAVYYCAAALTFRMDYWGQGTQVTVSS", "polyreactivity (PSR sort gate)": "high polyreactivity"}
{"input-sequence": "QVQLVESGGGLVQAVGSLRLSCASSGYTFDYYTMGWYRQAPGKERELVARITASGGSTYYADSVKGRFTISRDNAKNTVYLQMNSLKPEDTAVYYCAKAWYRYSRFDYWGQGTQVTVSS", "polyreactivity (PSR sort gate)": "high polyreactivity"}

Lab book: polyreactivity (PSR sort gate) of "QVQLVESGGGLVQAGGSLRLSCAASGSTFQYYAMGWYRQAPGKERELVASITWGGDNTDYADSVKGRFTISRDNAKNTVYLQMNSLKPEDTAVYYCNTVRSNKMDYWGQGTQVTVSS" noted as high polyreactivity

Lab book: polyreactivity (PSR sort gate) of "QVQLVESGGGLVQAGGSLRLSCAASGSTFQYYDMGWYRQAPGKERELVASITGSGDSTYYADSVKGRFTISRDNAKNTVYLQMNSLKPEDTAVYYCAAQNTWSGDYDYWGQGTQVTVSS" noted as low polyreactivity

Lab book: polyreactivity (PSR sort gate) of "QVQLVESGGGLVQAGGSLRLSCGASGRIFPGNAMGWYRQATGKERELVAGISFSGGRTYYADSVKGRFTISRDNAKNTVYLQMNSLTPEDSAVYYCATKYLQHWWRYDYWGQGTQVTVSS" noted as low polyreactivity

Lab book: polyreactivity (PSR sort gate) of "QVQLVESGGGLVQAGGSLRISCAASGSTLLRNAMGWYRQAPGKERELVAVITYSGGSTYYADSVKGRFTISRDNAKNTVYLQMNSLKPEDTAVYYCAADIWYYVRYPTDAYSKFDYCGQGTQVTVSS" noted as low polyreactivity

Lab book: polyreactivity (PSR sort gate) of "QVQLVESGGGLVQAGGSLRLSCAASGRTFFKYAMGWYRQAPGKERELVAAIRSGTSTYYADSVKGRFTISRDNAKNTVYLHMNSLKPEDTAVYYCAADWHSKIGKGYDYWGQGTQVTVSS" noted as high polyreactivity

Lab book: polyreactivity (PSR sort gate) of "QVQLVESGGGLVQAGGSLRLSCAASASIFDHYAMGCYRQAPGKARELVAAITWDGTSTYYADSVKGRFTISRDNAKNTVYLQMNSLKPEDTAVYYCADDFYPYSWEEVDYWGQGTQVTVSS" noted as low polyreactivity

Lab book: polyreactivity (PSR sort gate) of "QVQLLESGGGLVQAGGSLRLSCAASGSIFVFYAMGWYRQAPGKERELVAAISSSGGSTYYADTVKGRITISRDNAKNTVYLQMNSLKPEDTAVYYCAVRRSTGSRSPPMYYWGQGTQVTVSS" noted as high polyreactivity

Lab book: polyreactivity (PSR sort gate) of "QVQLVESGGGLVQAGGSLRLSCAASGSIFEPYTMGWYRQAPGKERELVAAITGSGGSTFYADSVKGRFTISRDNAKNTVYLQMNSLKPEDTAVDYCNAYAYPYTDVDYWGQGTQVTVSS" noted as low polyreactivity

Lab book: polyreactivity (PSR sort gate) of "PVQLVESGGGLVQAGGSLRLSCAASGSTFTSNAMGWYRQAPGKERELVAAIDRNGGRTYYADSVNGRFTISRDNAKNTVYLQMNSMKPEDTEVYYCAVLSKYRRTFGSWGQGTLVTVSS" noted as high polyreactivity

Lab book: polyreactivity (PSR sort gate) of "QVQLEESGGGLVQAGGSLRLSCPASGITFYRYVMGWNRQAPGKERELDAAINWSTGTTNYADSVKGRFTISRDNAKNTVYLQMNSLKPEDTAVYYCNARYRLRFIYSLRYDYWGQGTQVTVSS" noted as high polyreactivity

Lab book: polyreactivity (PSR sort gate) of "QVQLVESGGGLVQAGGSLRLSCAASGSIFYYYAMGWYRQAPGKERELVAAISTGGGSTYYADSVKGRFTISRDNAKNTVYLQINSLKPEDTAVYYCAAPWGYYSSFTDDYWGHGTQVTVSS" noted as low polyreactivity

Lab book: polyreactivity (PSR sort gate) of "QVQLVESGGGLVQAGGSLRLSCAASGRTFRNNAMGWYRQAPGKERELVAAITSGGSTNYADSVKGRFTISRDNAKNTVYLQMNSLKPEDTAVYYCAKDFWYVTGGWSSGMDYWGQGTQVTVSS" noted as low polyreactivity

Lab book: polyreactivity (PSR sort gate) of "QVQLVESGGGLVQAGGSLRLSCAASGSIFYYNTMGWYRQAPGKEREFVATITFSGSSTYYADSVKGRFTFSRDNAKNTVYLQMNSLKPEDTAVYYCAVTLEDYTYGYWGQGTQVTVSS" noted as low polyreactivity

Lab book: polyreactivity (PSR sort gate) of "QVQLVESGGGLVQAGGSLRLSCAASGNTFDSYVMGWYRQAPGKERELVAAISYRGGSTYYADSVKGRFTISRDNAKNTVYLQMNSLKPEDSAVYFCAADYFYYVYSYWYDSWGQGTQVTVSS" noted as high polyreactivity

Lab book: polyreactivity (PSR sort gate) of "QVQLVESGAGLVQAGGSLRLSCAASGNIFVEYAKGWYRQAPGKERELVAAITNTGGRTHYADSVKGRFTISRDNAKNTVYFQMNSLKPEDTAVYDCASRRTGYYGTRDYWGQVTQVTVSS" noted as high polyreactivity

###

- test: yeast display, Sf9 membrane polyspecificity reagent, FACS + sequencing; frameworks hold sequencing errors
measurement-name: polyreactivity (PSR sort gate)

{"input-sequence": "QVQLVESGGGLVQAGGSLRLSCAASGSTFQRYAMGWYRQAPGKERELVAAITSGGSTYYADSVKGRFTISRDNAKNTVYLQMNSQKPEDTAVYYCNAAWFYRYGYWGQGTQVTVSS", "polyreactivity (PSR sort gate)": "high polyreactivity"}
{"input-sequence": "QVQLEESGGGLVQAGGSLRLSCAASGITFLRNAMGWYSQAPGKERELVAAISRSGGRTYYADSVKGRFTISRDNAQNTVYLQMNSLKPEDTAVYYCAVVTQFGDGYYWGQGTQVTVSS", "polyreactivity (PSR sort gate)": "high polyreactivity"}
{"input-sequence": "QVQLVESGGGLVQAGGSLRLSCPASGRIFYKYAMGWYRQAPGKERELVAAISSTGGSTNYADSVKGRFTISRDNAKNSVYFQMNSLKPEDTAVYYCNAVSRYYYPYYYWGQGTQVTVSS", "polyreactivity (PSR sort gate)": "low polyreactivity"}
{"input-sequence": "QVQLVESGGGLVQAGGSLRISCAASGRTFRKYAMGWYRQAPGKERELVAAISWSGGSTYYANSVKGRFTISRDNAKNTVYLQMNSLKPEDTAVYYCAAVPVHTGSLYWGFTSGYDYWGQGTQVTVSS", "polyreactivity (PSR sort gate)": "low polyreactivity"}
{"input-sequence": "QVQLVESGGGLVQAGGSLRLSCAASGYTFGNYAMGWYRQAPGKERELVAGISWSGGSTYYADSVKGRFTISRDNAKNTVYLQMNSLKPEDTAVYYCATRVQGYHNGWYDYWGQGTQVTVSS", "polyreactivity (PSR sort gate)": "high polyreactivity"}

Lab book: polyreactivity (PSR sort gate) of "QVQLVESGGGLVQAGGSLRLSCAASGYTFASYTMGLYRQAPGKERELVATISRGGGRTYYADSVKGRFTISRDNAKNTVYLQMNSLKPEDTAVYYCATRLYPHQYYYWGQGTQVTVSS" noted as high polyreactivity

Lab book: polyreactivity (PSR sort gate) of "QVQLVESGGGLVQAGGSLRLSCAASGSIFKRNVMGWYRQAPGKERELVAAITWSGASTYYADSVKGRFTISRDNAKITVYLQMNSLKPEDTAVYYCAARGPSRRRDGSDYWGQGTQVTVSS" noted as high polyreactivity

Lab book: polyreactivity (PSR sort gate) of "QVQLVESRGGLVQAGGSLRLSCAASGYTFYGYAMGWYRQAPGKERELVAAISGSGGSTYYADSVKGRFTISRDNAKNTVYLQMNSLKREDTAVYYCNKARYAIYRGDGYDYWGQGTQVTVSS" noted as high polyreactivity

Lab book: polyreactivity (PSR sort gate) of "QVQLVESGGGLVQAGGSLRLSCAASGFTFIKYAMGWYRQAPGKEREFVAAITRSGTSTYYADSVKGRFTISRDNAKNTVYLQMNSLKPEDTAVYYCAARYVYNSDRVSERDYWGQGTQVTVSS" noted as high polyreactivity

Lab book: polyreactivity (PSR sort gate) of "QVQLVESGGGLVQAGGSLRFSCAASGFTFSHYAMGWYRQAPGQERELVAAITWSGGSTYYADSVKGRFTISRDNEKNTVYLQLNSVKPEDTAVYYCAAESYRDGVDYWGQGTQVTVSS" noted as high polyreactivity

Lab book: polyreactivity (PSR sort gate) of "QVQLVESGGGLVQAGGSLRLSCAASGRIFASYAMGWYRQAPGKERELVAAISLSGGSTYYADSVKGRFTISRDNAKNTVYLLMNSLKPEDNAVYYCNRLSNNREYVYWGQGTQLTVSS" noted as high polyreactivity
